Origin of values: patent US20020137929A1

# Tested on: SETVI (Foxtail, Green)
# testName: Postemergence herbicidal evaluation
# Format: in vivo, Setaria viridis
# setupConditions: postemergence, rate 0.0313 kg/ha

compound: CCOC(=O)CN1C(=O)C(C(=O)OC(C)(C)C)SC1=Nc1cc(-n2c(=O)cc(C(F)(F)F)n(C)c2=O)c(F)cc1Cl (stereo not shown)
Herbicidal rating SETVI: 4.0
//
compound: Cn1c(C(F)(F)F)cc(=O)n(-c2cc(N=C3SCC(=O)N3C3CCCC3)c(Cl)cc2F)c1=O
Herbicidal rating SETVI: 0.0
//
compound: Cn1c(C(F)(F)F)cc(=O)n(-c2cc(N=C3SCC(=O)N3Cc3ccc(C(F)(F)F)cc3)c(Cl)cc2F)c1=O
Herbicidal rating SETVI: 0.0
//
compound: Cc1cc(C)cc(CN2C(=O)CSC2=Nc2cc(-n3c(=O)cc(C(F)(F)F)n(C)c3=O)c(F)cc2Cl)c1
Herbicidal rating SETVI: 2.0
//
compound: CCOC(=O)CN1C(=O)C(C(=O)OC)SC1=Nc1cc(-n2c(=O)cc(C(F)(F)F)n(C)c2=O)c(F)cc1Cl (stereo not shown)
Herbicidal rating SETVI: 1.0
//
compound: C=CCN1C(=O)C(CC(=O)NS(=O)(=O)CC)SC1=Nc1cc(-n2c(=O)cc(C(F)(F)F)n(C)c2=O)c(F)cc1Cl (stereo not shown)
Herbicidal rating SETVI: 0.0
//
compound: Cc1ccccc1CN1C(=O)CSC1=Nc1cc(-n2c(=O)cc(C(F)(F)F)n(C)c2=O)c(F)cc1Cl
Herbicidal rating SETVI: 3.0
